- System: U251 CNS
- PROCEDURE_DETAILS: NCI-60 one-dose screen, 48 h
- CONDITIONS: 10 µM unless noted
The panel holds about 83,000 compounds, 20% with a hit somewhere; the sample as a whole holds those more often. Activity calls are given as the source filed them. How the source made its calls: active means growth percent below 10; inactive means the rest.
Result category, one only: active, inactive

[
  {
    "COMPOUND": "Cc1ccc2c(c1)nc(-c1ccccc1)n2CC(=O)N=Nc1c(O)[nH]c2ccc(Br)cc12",
    "CLASS": "active"
  },
  {
    "COMPOUND": "O=c1[nH]c(=O)c2c(-c3cc4ccccc4oc3=O)ccnc2[nH]1",
    "CLASS": "inactive"
  },
  {
    "COMPOUND": "CC(=O)c1cc(C(=O)c2ccccc2)n2c1ccc1ccccc12",
    "CLASS": "inactive"
  },
  {
    "COMPOUND": "CC(=O)Nc1cccc(Nc2nc(NCc3ccccc3)c3ccccc3n2)c1",
    "CLASS": "active"
  },
  {
    "COMPOUND": "Cc1cccc(Nc2nc3ccccc3nc2/C=C/c2ccc(F)cc2)c1",
    "CLASS": "inactive"
  }
]

Dear colleague, could you share the recorded outcome for COCOc1cc2oc(C(=O)N[C@@H](Cc3ccccc3)C(O)C(=O)NCc3ccccc3)c(C)c(=O)c2cc1OCOC (some centres not stated) when you have a moment?
inactive

// query: C#CCOc1ccc(/C=N/Nc2nc(-c3ccc(F)cc3)cs2)cc1OC
inactive

Then C=C1CC[C@@H]2[C@]3(C)COC(c4cn(-c5ccccc5)nc4-c4ccccc4)O[C@@H]3CC[C@@]2(C)[C@@H]1C/C=C1/C(=O)OC[C@H]1O (some centres not stated) ?
active

Also need Clc1cccc(-c2ccc(OCCCN3CCN(c4ccncc4)CC3)cc2)c1 , thanks.
active

Try this compound too: CN(C)CCCNC(=O)c1cc(NC(=O)c2cc(NC(=O)c3ccc(C#Cc4ccccc4)cc3)cn2C)cn1C
active

Thanks! And N/C(=N\c1nc2ccccc2s1)NC(=O)Nc1ccc(Cl)cc1Cl ?
active

Try COc1ccc(/C=C/c2nc3ccccc3c(=O)n2CC(=O)Nc2ccc(OC)cc2)cc1 next.
inactive

---

Assignment: determine reported growth for the given compounds.
- Tested on: NCI-H226 lung
- PROCEDURE_DETAILS: NCI-60 one-dose screen, 48 h (100 = growth as untreated, 0 = no growth, -100 = all killed)
- CONDITIONS: 10 µM unless noted
This is part of a sample that, as a whole, favours compounds with a hit. Of some 83,000 tested, about 20% had one in any assay. Active and inactive are the calls of the source. How the source made its calls: active means growth percent below 10; inactive means the rest.

Worked examples follow.
[
  {
    "COMPOUND": "Nc1cccc(SCc2cc3ccccc3[nH]c2=O)c1",
    "growth": "69.8% (inactive)"
  },
  {
    "COMPOUND": "COc1cc2c(c(OC)c1OC)C(=O)CC(c1cccc(NC(=O)c3cc([N+](=O)[O-])ccc3Cl)c1)O2 (stereo not given)",
    "growth": "25.3% (inactive)"
  }
]

Fill in growth for each of the 2 compounds listed.
1. O=C(C1=CNC(=S)NC1c1ccc(O)cc1)c1cc2ccccc2oc1=O (stereo not given)
2. CC(=O)c1cccc(NC(=O)CCC(=O)NS(=O)(=O)c2ccc(C)cc2)c1

95.7% (inactive)
108% (inactive)

May I ask what growth has been recorded for CCN(CC)CCOc1ccc(Nc2ncc3cc(-c4ccc(O)c(C#N)c4)c(=O)n(C)c3n2)cc1 ?
49.3% (inactive)
